- SYSTEM UNDER TEST: Dimer of Gag-Pol polyprotein [501-599,Q508K,L534I,L564I,C568A,C596A] (Human immunodeficiency virus 1, UniProt P03367, C568A/C596A/L534I/L564I/Q508K)
- Construct: 501-599
- MEASUREMENT NOTES: Protease Inhibition Assay
pKi: −log10 of the molar value.
ENDPOINT: pKi

Reference set (2 entries):
1. O=C(N[C@@H](Cc1ccccc1)[C@H](O)CN(OC1CCCC1)S(=O)(=O)c1ccc2c(c1)OCO2)O[C@H]1CO[C@H]2OCC[C@H]21: > 11.30
2. Nc1cccc(S(=O)(=O)N(C[C@@H](O)[C@H](Cc2ccccc2)NC(=O)O[C@H]2CO[C@H]3OCC[C@H]32)OC2CCCC2)c1: > 11.30

Noted for `Nc1ccc(S(=O)(=O)N(C[C@@H](O)[C@H](Cc2ccccc2)NC(=O)O[C@H]2CO[C@H]3OCC[C@H]32)OC2CCCC2)cc1` : its pKi reads > 11.30

The measurements presented in this section are drawn from BindingDB's records for doi:10.1016/j.bmcl.2005.05.101.
